Cited source for all entries: the supplement of paper PMC4466140

Biological target: CaAbp1-D2
Assay: SPOT peptide array binding signal intensity (averaged, normalized) (arbitrary units (background-subtracted, floor 0; scale differs between SH3 domains)); higher = stronger binding of the SH3 domain to the peptide
readout: SPOT peptide array binding signal intensity

binder	obsValue
LSKRLPLRFPEHTSS	220
KKAPPPVVKPKPRNF	6180

Hey, quick one: what's SPOT peptide array binding signal intensity for each of these?
1. ALKQKKIPPPFKPHL
2. AVPPPPPPPPLPESL
3. RKLRTVPGVPLIHLT
4. IHTRRPSSTSQYLIR
5. LLLLFVPDSPYDPAI
6. FPPKRKPLLRPQRSD
7. VLRFLGFPLPIFEKG

1. 984
2. 1
3. 83
4. 571
5. 1
6. 2460
7. 3.5

I'd like to know its SPOT peptide array binding signal intensity. The binder in question is EREKALPPIPFTTTL
≤ 0
